Target: SIRT1 (Homo sapiens)
Sequence (Q96EB6 1-747): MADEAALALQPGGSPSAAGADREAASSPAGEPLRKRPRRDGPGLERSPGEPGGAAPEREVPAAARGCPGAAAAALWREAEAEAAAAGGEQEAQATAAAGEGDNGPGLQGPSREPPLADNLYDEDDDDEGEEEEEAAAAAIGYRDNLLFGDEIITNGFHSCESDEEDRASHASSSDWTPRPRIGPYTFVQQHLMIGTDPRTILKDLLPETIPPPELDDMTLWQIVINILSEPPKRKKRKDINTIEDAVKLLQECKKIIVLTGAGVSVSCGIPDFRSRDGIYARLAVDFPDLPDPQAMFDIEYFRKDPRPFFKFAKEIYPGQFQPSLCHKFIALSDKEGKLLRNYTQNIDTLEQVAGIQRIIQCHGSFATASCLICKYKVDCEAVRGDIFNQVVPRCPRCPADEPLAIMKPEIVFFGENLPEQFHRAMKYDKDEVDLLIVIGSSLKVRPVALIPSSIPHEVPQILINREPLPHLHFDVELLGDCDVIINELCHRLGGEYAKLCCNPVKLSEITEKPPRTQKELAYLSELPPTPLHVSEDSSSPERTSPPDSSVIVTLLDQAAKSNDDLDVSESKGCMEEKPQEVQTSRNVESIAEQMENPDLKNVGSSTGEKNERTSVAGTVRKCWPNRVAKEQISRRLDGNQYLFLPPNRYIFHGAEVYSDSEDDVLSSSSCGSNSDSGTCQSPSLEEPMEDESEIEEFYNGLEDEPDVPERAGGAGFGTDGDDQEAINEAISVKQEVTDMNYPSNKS
Test: Trp mass spectrometry assay of SIRT1 activation
Type: biochemical
Conditions: Trp mass spectrometry assay; EC1.5 = concentration of test compound that results in 150% activation of SIRT1
outcome_measure: Tryp AVG EC1.5 (μM)

// known answers, use as guide
line_notation | measured_result
Cc1nc(NC(=O)N2c3nc(-c4cncc(C(F)(F)F)c4)ccc3N3CCC[C@H]2C3)sc1C | A (A (EC1.5<1 μM))
O=C(Nc1ccncn1)N1c2nc(-c3cccnc3)ccc2N2CCC[C@H]1C2 | B (B (EC1.5 1-25 μM))
Cc1cc(-c2ccc3c(n2)N(C(=O)Nc2ccncn2)[C@H]2CCN3C2)ccn1 | B (B (EC1.5 1-25 μM))
O=C(Nc1ccc(F)cn1)N1c2nc(-c3ccnc(N4CCC(F)(F)C4)c3)ccc2N2CC[C@H]1C2 | A (A (EC1.5<1 μM))
O=C(Nc1ccncc1F)N1c2nc(-c3cccc(Cl)c3)ccc2N2CCC[C@H]1C2 | A (A (EC1.5<1 μM))

Identify the measured Tryp AVG EC1.5 (μM) of N#Cc1ccccc1-c1ccc2c(n1)N(C(=O)Nc1ccncn1)[C@H]1CCCN2C1 for SIRT1 (Homo sapiens).
B (B (EC1.5 1-25 μM))

Please tell me: Tryp AVG EC1.5 (μM) of O=C(Nc1cccc(-n2cncn2)c1)N1c2nc(-c3cccc(C(F)(F)F)c3)ccc2N2CC[C@H]1C2 , system SIRT1 (Homo sapiens)?
A (A (EC1.5<1 μM))

Find Tryp AVG EC1.5 (μM) (SIRT1 (Homo sapiens)) for the entry O=C(Nc1ccncn1)N1c2nc(-c3cccc(Cl)c3)ccc2N2CCC1CC2
B (B (EC1.5 1-25 μM))

Please tell me: Tryp AVG EC1.5 (μM) of O=C(Nc1cncc(F)c1)N1c2nc(-c3cccc(N4CCOCC4)c3)ccc2N2CCC[C@H]1C2 , system SIRT1 (Homo sapiens)?
A (A (EC1.5<1 μM))

Return Tryp AVG EC1.5 (μM) measured with SIRT1 (Homo sapiens) given this compound: Cc1ccc(-c2ccc3c(n2)N(C(=O)Nc2ccncn2)[C@H]2CCCN3C2)cn1
B (B (EC1.5 1-25 μM))

Request body: readout Tryp AVG EC1.5 (μM), system SIRT1 (Homo sapiens), query Cc1cc(-c2ccc3c(n2)N(C(=O)Nc2cnc(OC[C@@H](O)CO)cn2)[C@H]2CCN3C2)ccn1 . Return the value.
B (B (EC1.5 1-25 μM))

Item O=C(CCCC[C@@H]1SC[C@@H]2NC(=O)N[C@@H]21)NCCCCCC(=O)NCc1cn(-c2cccc(NC(=O)N3c4nc(-c5cccc(C(F)(F)F)c5)ccc4N4CC[C@H]3C4)c2)nn1 with SIRT1 (Homo sapiens) - Tryp AVG EC1.5 (μM)?
A (A (EC1.5<1 μM))

// fetch SIRT1 (Homo sapiens) Tryp AVG EC1.5 (μM) for O=C(NCCc1ccccc1)N1c2nc(-c3cccc(C(F)(F)F)c3)ccc2N2CC[C@H]1C2
B (B (EC1.5 1-25 μM))

Query Tryp AVG EC1.5 (μM) on SIRT1 (Homo sapiens) for Cc1cc(-c2ccc3c(n2)N(C(=O)Nc2nc(C)c(C)s2)[C@H]2CCN3C2)ccn1
A (A (EC1.5<1 μM))
